The measured values listed here are drawn from patent US20150037348A1.

# SYSTEM_TESTED: T1, human IL-12 (human, UniProt P29459 23-219; P29460 23-328)
# T1 construct: recombinant human IL-12 heterodimer (p35/p40, disulfide-linked); also called hIL-12; rhIL-12
# T1 sequence (looked up) 1: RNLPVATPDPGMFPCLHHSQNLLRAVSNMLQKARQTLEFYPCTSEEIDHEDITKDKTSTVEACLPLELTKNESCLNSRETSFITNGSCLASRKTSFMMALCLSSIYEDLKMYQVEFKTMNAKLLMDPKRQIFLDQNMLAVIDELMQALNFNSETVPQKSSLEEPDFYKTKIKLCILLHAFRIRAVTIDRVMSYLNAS
# T1 sequence (looked up) 2: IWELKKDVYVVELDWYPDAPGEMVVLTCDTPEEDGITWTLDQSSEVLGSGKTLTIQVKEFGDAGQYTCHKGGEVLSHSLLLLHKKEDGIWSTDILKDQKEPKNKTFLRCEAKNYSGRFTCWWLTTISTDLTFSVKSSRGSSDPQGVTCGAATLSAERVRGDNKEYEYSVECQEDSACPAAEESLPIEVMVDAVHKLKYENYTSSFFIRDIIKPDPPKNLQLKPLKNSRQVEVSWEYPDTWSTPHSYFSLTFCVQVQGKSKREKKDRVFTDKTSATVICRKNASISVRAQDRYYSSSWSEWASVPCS
# ASSAY_OVERVIEW: SPR (BIAcore), IL-12 chip

# BINDER, UNITS_LABEL, koff
measured = [
    ("101-11 (scFv, V domains shown, scFv) VH: QVQLVQSGGGVVQPGRSLRLSCAASGFTFSSYGMHWVRQAPGKGLEWVAFIRYDGSNKYYADSVKGRFTISRDNSKNTLYLQMKSLRAEDTAVYYCTTHGSHDNWGQGTMVTVSS VL: SYVLTQPPSVSGTPGQRVTISCSGGRSNIGSNTVKWYQQLPGTAPKLLIYGNDQRPSGVPDRFSGSKSGTSASLAITGVQAEDEADYYCQSYDRGFTGSRVFGTGTKVTVL", "s⁻¹", 0.0045),
    ("156-3 (scFv, V domains shown, scFv) VH: QVQLVQSGGGVVQPGRSLRLSCAASGFTFSSYGMHWVRQAPGKGLEWVAFIRYDGSNKYYADSVKGRFTISRDNSKNTLYLQMKSLRAEDTAVYYCTTHGSHDTWGQGTMVTVSS VL: SYVLTQPPSVSGTPGQRVTISCSGGRSNIGSNTVKWYQQLPGTAPKLLIYGNDQRPSGVPDRFSGSKSGTSASLAITGVQAEDEADYYCQSYDNGFTGARVFGTGTKVTVL", "s⁻¹", 0.009),
]
